Just for reference, patent US20060193821 is where these values come from.

Listed next: entries and their corresponding pKd.
# subjectOfTest: IL-23 (human, p19/p40 heterodimer) (Homo sapiens, UniProt Q9NPF7;P29460 SEQ:20-189,SEQ:23-328)
# Sequence (Q9NPF7 20-189, chain 1 of 2): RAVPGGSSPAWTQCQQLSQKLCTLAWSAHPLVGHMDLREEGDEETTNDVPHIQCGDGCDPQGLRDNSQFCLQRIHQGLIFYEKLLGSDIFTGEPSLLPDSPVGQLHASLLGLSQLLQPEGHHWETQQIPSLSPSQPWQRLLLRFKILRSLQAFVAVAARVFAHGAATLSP
# Sequence (P29460 23-328, chain 2 of 2): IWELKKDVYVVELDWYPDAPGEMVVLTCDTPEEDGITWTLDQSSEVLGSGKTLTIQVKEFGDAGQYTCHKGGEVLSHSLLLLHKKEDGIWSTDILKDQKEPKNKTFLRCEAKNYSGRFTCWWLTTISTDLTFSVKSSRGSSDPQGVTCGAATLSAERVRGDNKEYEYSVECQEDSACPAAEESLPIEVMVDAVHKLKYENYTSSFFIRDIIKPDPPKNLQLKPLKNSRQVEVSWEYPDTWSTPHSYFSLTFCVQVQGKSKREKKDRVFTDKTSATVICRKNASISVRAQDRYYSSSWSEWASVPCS
# protocolDescription: filter; DPBS with Ca and Mg, 0.1 mg/mL tRNA, 30 min RT
# studyConditions: tags: R&D Systems, carrier free; label: 32P
Conceptually, pKd converts a concentration in mol/L into minus its log10.

rRmY clone SEQ 76 (ssRNA, 2'-OMe all C and U (rRmY)) RNA: GGGAGAGGAGAGAACGUUCUACAACAAAGCAGGCUCAUAGUAAUAUGGAAGUCGCUGUCGAUCGAUCGAUCGAUG
7.11
rRmY clone SEQ 80 (ssRNA, 2'-OMe all C and U (rRmY)) RNA: GGGAGAGGAGAGAACGUUCUACAAGAUAUAAUUAAGGAUAAGUGCAAAGGAGACGCUGUCGAUCGAUCGAUCGAUG
5.42
rRmY clone SEQ 83 (ssRNA, 2'-OMe all C and U (rRmY)) RNA: GGGAGAGGAGAGAACGUUCUACGCAGGCUGUCGUAGACAAACGAUGAAGUCGCGCUGUCGAUCGAUCGAUCGAUG
8.09

Here's the next entry for you.
Consider the binder rRmY clone SEQ 88 (ssRNA, 2'-OMe all C and U (rRmY)) RNA: GGGAGAGGAGAGAACGUUCUACAUAAGCAGGCUCCGAUAGUAUUCGGGAAGUCGCUGUCGAUCGAUCGAUCGAUG and give its measured pKd.
6.99
